target: Focal adhesion kinase 1 (Homo sapiens) (UniProt Q05397); assay: Inhibition of FAK at 10 uM by HTRF assay relative to control
Sequence (Q05397 2-1052 limits assumed): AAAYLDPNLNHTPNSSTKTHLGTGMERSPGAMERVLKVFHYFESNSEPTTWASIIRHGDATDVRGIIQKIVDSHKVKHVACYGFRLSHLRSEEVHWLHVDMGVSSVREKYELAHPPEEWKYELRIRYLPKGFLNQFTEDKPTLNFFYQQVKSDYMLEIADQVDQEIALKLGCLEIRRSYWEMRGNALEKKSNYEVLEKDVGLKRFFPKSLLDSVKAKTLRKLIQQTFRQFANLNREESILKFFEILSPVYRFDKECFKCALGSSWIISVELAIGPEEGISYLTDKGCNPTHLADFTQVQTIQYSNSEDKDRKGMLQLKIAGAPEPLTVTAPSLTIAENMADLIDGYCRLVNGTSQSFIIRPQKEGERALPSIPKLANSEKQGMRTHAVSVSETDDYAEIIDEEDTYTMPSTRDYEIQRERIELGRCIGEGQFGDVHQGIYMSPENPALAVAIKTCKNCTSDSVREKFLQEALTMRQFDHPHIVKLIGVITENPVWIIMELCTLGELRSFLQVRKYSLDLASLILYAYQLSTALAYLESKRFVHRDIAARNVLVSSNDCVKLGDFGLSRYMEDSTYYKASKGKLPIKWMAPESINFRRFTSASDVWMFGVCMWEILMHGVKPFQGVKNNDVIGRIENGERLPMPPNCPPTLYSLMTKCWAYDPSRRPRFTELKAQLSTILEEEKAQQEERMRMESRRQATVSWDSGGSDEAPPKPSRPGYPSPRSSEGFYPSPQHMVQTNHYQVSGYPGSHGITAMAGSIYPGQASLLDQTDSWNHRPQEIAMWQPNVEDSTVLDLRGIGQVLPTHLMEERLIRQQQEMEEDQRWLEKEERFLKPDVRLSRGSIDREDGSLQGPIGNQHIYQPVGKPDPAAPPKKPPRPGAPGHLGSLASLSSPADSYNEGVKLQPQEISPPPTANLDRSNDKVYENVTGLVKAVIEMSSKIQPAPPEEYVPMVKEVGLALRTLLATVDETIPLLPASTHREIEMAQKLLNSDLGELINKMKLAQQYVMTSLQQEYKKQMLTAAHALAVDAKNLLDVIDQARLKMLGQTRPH
Quick rule: inhibition of at least 5% means Satisfied, below that means Not satisfied.

**Query** Please indicate if the recorded inhibition for Cc1cccc(Oc2ccnc(N3CCN(CC(=O)Nc4cccc5c4CCCC5)CC3)n2)c1 meets or exceeds 5%.
**Result** Not satisfied

**Query** Please indicate if the recorded inhibition for Nc1nc(Nc2ccc(C(=O)NCCc3ccncc3)cc2)cc(N2CCOCC2)n1 meets or exceeds 5%.
**Result** Not satisfied

**Query** Please indicate if the recorded inhibition for COC[C@@H]1CCCN1C(=O)[C@@H]1CCCN1c1cc(Nc2cccc(OC)c2)nc(N)n1 meets or exceeds 5%.
**Result** Not satisfied

**Query** Please indicate if the recorded inhibition for COc1cccc(Nc2cc(N3CCC[C@H]3C(=O)NCCN3CCCCC3)nc(N)n2)c1 meets or exceeds 5%.
**Result** Not satisfied

**Query** Please indicate if the recorded inhibition for Cc1cccc(Oc2ccnc(N3CCC[C@H]3C(=O)NCCCn3ccnc3)n2)c1 meets or exceeds 5%.
**Result** Not satisfied

**Query** Please indicate if the recorded inhibition for Cc1cccc(Nc2nccc(Nc3cccc(C(=O)N(C)CCc4ccccn4)c3)n2)c1 meets or exceeds 5%.
**Result** Satisfied

**Query** Please indicate if the recorded inhibition for COC(=O)C(CO)NC(=O)[C@@H]1CCCN1c1nccc(Oc2cccc(C)c2)n1 (stereo partly specified) meets or exceeds 5%.
**Result** Satisfied

**Query** Please indicate if the recorded inhibition for O=C(COc1ccccc1)N1CCN(c2nccc(Nc3ccc4ncsc4c3)n2)CC1 meets or exceeds 5%.
**Result** Satisfied

**Query** Please indicate if the recorded inhibition for Cc1cccc(N(C)c2cc(Nc3ccc(CC(=O)Nc4ccc5ncsc5c4)cc3)ncn2)c1 meets or exceeds 5%.
**Result** Satisfied

**Query** Please indicate if the recorded inhibition for Cc1cccc(Nc2ncnc3c2CN(C(=O)c2ccc(N(C)C)c4ccccc24)CC3)c1 meets or exceeds 5%.
**Result** Satisfied

**Query** Please indicate if the recorded inhibition for Nc1nc(N2CCOCC2)cc(N2CCC(C(=O)NCc3cccs3)CC2)n1 meets or exceeds 5%.
**Result** Not satisfied

**Query** Please indicate if the recorded inhibition for Cc1ccc(CN2CCN(c3nccc(C(C#N)c4ccccn4)n3)CC2)cc1 (stereo unspecified) meets or exceeds 5%.
**Result** Not satisfied

**Query** Please indicate if the recorded inhibition for Cc1cccc(Oc2ccnc(N3CCN(C(=O)c4c(C)noc4C)CC3)n2)c1 meets or exceeds 5%.
**Result** Not satisfied

**Query** Please indicate if the recorded inhibition for Cc1cccc(CN2CCN(c3cc(N(C)c4cccc(C)c4)ncn3)CC2)c1 meets or exceeds 5%.
**Result** Not satisfied

**Query** Please indicate if the recorded inhibition for Nc1nc(Nc2ccccc2)cc(N2CCC(C(=O)NCCc3ccccn3)CC2)n1 meets or exceeds 5%.
**Result** Not satisfied

**Query** Please indicate if the recorded inhibition for Cc1cccc(N(C)c2cc(Nc3cccc(C(=O)N4CCCC5CCCCC54)c3)ncn2)c1 (stereo unspecified) meets or exceeds 5%.
**Result** Satisfied

**Query** Please indicate if the recorded inhibition for Nc1nc(Nc2ccc3ncsc3c2)cc(N2CCC[C@H]2C(=O)N[C@@H](CO)c2ccccc2)n1 meets or exceeds 5%.
**Result** Satisfied

**Query** Please indicate if the recorded inhibition for COc1cccc(Nc2cc(Nc3cccc(C(=O)NCCCn4ccnc4)c3)nc(N)n2)c1 meets or exceeds 5%.
**Result** Satisfied

**Query** Please indicate if the recorded inhibition for Nc1nc(Nc2ccc3ncsc3c2)cc(N2CCC[C@H]2C(=O)NCCc2cccc(I)c2)n1 meets or exceeds 5%.
**Result** Not satisfied

**Query** Please indicate if the recorded inhibition for O=C(NCc1ccncc1)c1cccc(Nc2cc(Nc3cccc(Br)c3)ncn2)c1 meets or exceeds 5%.
**Result** Satisfied

**Query** Please indicate if the recorded inhibition for Cc1cccc(Oc2ccnc(N3CCC[C@H]3C(=O)NCc3cccnc3)n2)c1 meets or exceeds 5%.
**Result** Not satisfied

**Query** Please indicate if the recorded inhibition for O=C(c1nc(SCc2ccc(Cl)cc2)n2ccccc12)N1CCN(c2ncnc3c2CN(Cc2ccccc2)CC3)CC1 meets or exceeds 5%.
**Result** Not satisfied

**Query** Please indicate if the recorded inhibition for Cc1cccc(N(C)c2cc(Nc3cccc(C(=O)NCCCn4ccnc4)c3)ncn2)c1 meets or exceeds 5%.
**Result** Satisfied

**Query** Please indicate if the recorded inhibition for O=C(NCCc1ccc(O)cc1)c1cccc(Nc2nccc(Nc3ccc4ncsc4c3)n2)c1 meets or exceeds 5%.
**Result** Satisfied

**Query** Please indicate if the recorded inhibition for CN(C)CC(C)(C)CNC(=O)[C@@H]1CCCN1c1nccc(Nc2ccccc2)n1 meets or exceeds 5%.
**Result** Not satisfied

**Query** Please indicate if the recorded inhibition for Cc1cccc(Nc2cc(Nc3cccc(C(=O)N(CC(C)O)CC(C)O)c3)ncn2)c1 (stereo unspecified) meets or exceeds 5%.
**Result** Satisfied

**Query** Please indicate if the recorded inhibition for COC[C@@H]1CCCN1C(=O)[C@@H]1CCCN1c1nccc(Nc2ccccc2)n1 meets or exceeds 5%.
**Result** Not satisfied

**Query** Please indicate if the recorded inhibition for Cc1cccc(Nc2nccc(Nc3cccc(C(=O)NCc4ccc(N(C)C)cc4)c3)n2)c1 meets or exceeds 5%.
**Result** Satisfied

**Query** Please indicate if the recorded inhibition for O=C(NC[C@@H]1CCCO1)c1cccc(Nc2nccc(Nc3ccc4ncsc4c3)n2)c1 meets or exceeds 5%.
**Result** Satisfied

**Query** Please indicate if the recorded inhibition for COc1ccc(-c2noc(CN3CCN(c4cc(Nc5cccc(O)c5)ncn4)CC3)n2)cc1 meets or exceeds 5%.
**Result** Not satisfied

**Query** Please indicate if the recorded inhibition for CC(=O)CCCCC(=O)N1CCN(c2nccc(Oc3cccc(C)c3)n2)CC1 meets or exceeds 5%.
**Result** Not satisfied

**Query** Please indicate if the recorded inhibition for Cc1cc(C(=O)N2CCN(c3ncnc4c3CN(Cc3ccccc3)CC4)CC2)c(C)n1C meets or exceeds 5%.
**Result** Not satisfied

**Query** Please indicate if the recorded inhibition for Clc1ccc2sc(CN3CCN(c4ncnc5c4CN(Cc4ccccc4)CC5)CC3)cc2c1 meets or exceeds 5%.
**Result** Not satisfied

**Query** Please indicate if the recorded inhibition for O=C(c1nc(SCc2ccc(Cl)cc2)n2ccccc12)N1CCN(c2cc(Nc3cccc(Br)c3)ncn2)CC1 meets or exceeds 5%.
**Result** Not satisfied
